Provenance of the data: paper PMC7306444

- TESTED ON: NT-hFMRP ΔKH1 (Homo sapiens, UniProt Q06787 281-632)
- ASSAY TEXT: fluorescence anisotropy
pKd: −log10 of the molar value.
OBSERVED PROPERTY: pKd

{"columns": ["BINDER", "ASSAY RESULT"],
 "data": [
  ["GGGGGGGGGGGGGGGGGU (structured_RNA) [PolyG17]", 7.77],
  ["UUGGAUGGAUGGAUGGAU (structured_RNA) [(UGGA)4]", 6.08],
  ["UGGGGU (structured_RNA) [UG4U]", 7.10]
]}
